Provide the reported PBM 8-mer E-score of each item.
- Test system: muMax20 (Max(13-93) K31hArg/K57hArg, M65Nle)
- ASSAY: PBM 8-mer E-score (E-score (rank enrichment, -0.5 to 0.5)); higher = stronger preferential binding
In all, about 33,000 sequences were measured (“E-score (rank enrichment, -0.5 to 0.5)”: median about -0.0068, highest 2% from about 0.24 on). This is one part of a sample in which the highest values are shown more often than they occur.
Answer with a number only.

State its PBM 8-mer E-score: `ATAACTAA` 0.245

State its PBM 8-mer E-score: `CACATGGA` 0.238

State its PBM 8-mer E-score: `TACATACA` 0.26

State its PBM 8-mer E-score: `ATAACTAC` 0.206

State its PBM 8-mer E-score: `ACGTGTAT` 0.386

State its PBM 8-mer E-score: `CACATACA` 0.112

State its PBM 8-mer E-score: `CACATGGC` 0.269

State its PBM 8-mer E-score: `GACATGGC` 0.0454

State its PBM 8-mer E-score: `CCGTGTAA` -0.147
